# Tested on: Providencia rettgeri
# Test: Antibacterial activity against Providencia rettgeri M1771
# Format: functional
Listing of entries alongside the reported MIC.
Metric: MIC (µg/mL)

>>> print(df.to_string())
                                    compound  reading_unit  comparison_sign  quantitative_readout
 0  CC(=O)Nc1c(F)c(N2CCNCC2)c(F)c2c1c(=O)c(C(=O)O)cn2C1CC1         µg/mL                >                    25
 1  CNCC1CCN(c2c(F)c(N)c3c(=O)c(C(=O)O)cn(C4CC4)c3c2F)C1 (stereo unspecified)         µg/mL                =                   0.2
 2  CN1CCN(c2c(F)c(N)c3c(=O)c(C(=O)O)cn(C4CC4)c3c2F)CC1         µg/mL                =                  0.05
 3  NCC1CCN(c2c(F)c(N)c3c(=O)c(C(=O)O)cn(C4CC4)c3c2F)C1 (stereo unspecified)         µg/mL                =                  0.05
 4  CN1CCN(c2c(F)c(N(C)C)c3c(=O)c(C(=O)O)cn(C4CC4)c3c2F)CC1         µg/mL                >                    25
 5  Nc1c(F)c(N2CCC(N)C2)c(F)c2c1c(=O)c(C(=O)O)cn2C1CC1 (stereo unspecified)         µg/mL                =                 0.025
 6  CC1COc2c(N3CCN(C)CC3)c(F)cc3c(=O)c(C(=O)O)cn1c23 (stereo unspecified)         µg/mL                =                   0.1
 7  CCNCC1CCN(c2c(F)c(NC)c3c(=O)c(C(=O)O)cn(C4CC4)c3c2F)C1 (stereo unspecified)         µg/mL                =                   1.6
 8  CCNCC1CCN(c2c(F)c(N)c3c(=O)c(C(=O)O)cn(C4CC4)c3c2F)C1 (stereo unspecified)         µg/mL                =                  0.05
 9  Nc1c(F)c(N2CCNCC2)c(F)c2c1c(=O)c(C(=O)O)cn2C1CC1         µg/mL                =                  0.05
10  O=C(O)c1cn(C2CC2)c2cc(N3CCNCC3)c(F)cc2c1=O         µg/mL                =                   0.1
